molecular target: α5-GABAA receptor (Homo sapiens, UniProt P18507+P31644); construct: expressed in transfected cells; host or cells: HEK293, monoclonal stably transfected line; assay: Cell-level screening: whole cell patch clamp, inverse agonist efficacy on α5-GABAA receptor expressed in HEK293; type: cell-based; details: drug 100 nM, GABA 0.05 μM, HEK293 expressing α5, β3 and γ2 subunits, clamped at −60 mV; read-out: Compound inverse agonist efficacy %
Sequence (P31644 32-462): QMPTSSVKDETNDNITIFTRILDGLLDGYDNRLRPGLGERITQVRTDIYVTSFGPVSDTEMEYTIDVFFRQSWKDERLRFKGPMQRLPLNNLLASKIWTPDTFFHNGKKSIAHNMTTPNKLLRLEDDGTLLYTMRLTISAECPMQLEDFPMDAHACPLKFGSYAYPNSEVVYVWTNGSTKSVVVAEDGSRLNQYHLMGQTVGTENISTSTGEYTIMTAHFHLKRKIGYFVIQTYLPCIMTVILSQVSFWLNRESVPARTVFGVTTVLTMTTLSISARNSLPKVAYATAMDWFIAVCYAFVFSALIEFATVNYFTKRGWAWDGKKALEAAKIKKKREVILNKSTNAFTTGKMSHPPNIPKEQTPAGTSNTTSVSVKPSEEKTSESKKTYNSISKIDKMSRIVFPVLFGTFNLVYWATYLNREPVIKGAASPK
Sequence (P28472 26-473 partner): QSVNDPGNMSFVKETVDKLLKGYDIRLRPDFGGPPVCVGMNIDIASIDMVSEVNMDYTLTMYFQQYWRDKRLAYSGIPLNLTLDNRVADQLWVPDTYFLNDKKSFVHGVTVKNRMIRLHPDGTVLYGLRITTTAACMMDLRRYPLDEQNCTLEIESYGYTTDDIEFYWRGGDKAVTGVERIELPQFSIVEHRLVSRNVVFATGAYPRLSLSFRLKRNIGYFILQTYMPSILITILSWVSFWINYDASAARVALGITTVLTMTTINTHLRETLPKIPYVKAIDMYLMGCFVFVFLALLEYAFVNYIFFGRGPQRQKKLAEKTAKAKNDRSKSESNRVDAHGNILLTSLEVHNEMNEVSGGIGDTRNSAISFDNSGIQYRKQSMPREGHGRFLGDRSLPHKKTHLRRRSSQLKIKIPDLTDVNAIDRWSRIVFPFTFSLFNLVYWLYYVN
Sequence (P18507 40-467 isoform P18507-1 limits assumed): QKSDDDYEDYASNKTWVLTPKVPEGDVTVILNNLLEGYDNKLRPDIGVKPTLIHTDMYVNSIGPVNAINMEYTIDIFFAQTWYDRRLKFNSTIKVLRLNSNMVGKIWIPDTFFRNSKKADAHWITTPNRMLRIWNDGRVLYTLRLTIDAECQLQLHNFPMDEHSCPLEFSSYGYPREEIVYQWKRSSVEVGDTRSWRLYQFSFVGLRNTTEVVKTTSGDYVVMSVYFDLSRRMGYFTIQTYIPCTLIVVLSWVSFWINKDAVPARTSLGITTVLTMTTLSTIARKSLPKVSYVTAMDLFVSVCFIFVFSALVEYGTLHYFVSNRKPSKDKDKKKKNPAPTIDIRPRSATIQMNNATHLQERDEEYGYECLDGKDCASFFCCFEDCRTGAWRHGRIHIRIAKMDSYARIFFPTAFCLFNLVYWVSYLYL
Returns one of yes or no; yes when inhibition at 0.1 µM is >= 50%.

CCOc1cccc(COc2nn3c(-c4cc(C)on4)nnc3cc2OC)n1 [Embodiment 22] : no
COc1cc2nnc(-c3cc(C)on3)n2nc1OCc1ccc2c(cnn2CCC#N)n1 [Embodiment 228] : no
COc1cc2nnc(-c3cc(C)on3)n2nc1OCc1ccc(OC(F)F)cn1 [Embodiment 24] : no
COc1cc2nnc(-c3cc(C)on3)n2nc1OCc1cc(C#N)ccn1 [Embodiment 29] : yes
COCCOc1ccc(COc2nn3c(-c4cc(C)on4)nnc3cc2OC)nc1 [Embodiment 6] : no
COc1cc2nnc(-c3cc(C)on3)n2nc1OCc1ccc2c(n1)CCN(C(C)C)C2 [Embodiment 83] : no

### Prompt Does COc1cc2nnc(-c3cc(C)on3)n2nc1OCc1ccc2c(n1)CCN(c1cc(C)on1)C2 [Embodiment 191] have a reported inhibition at 0.1 µM of at least 50%?
### Response no

### Prompt Does COCc1ccc(COc2nn3c(-c4cc(C)on4)nnc3cc2OC)nn1 [Embodiment 151] have a reported inhibition at 0.1 µM of at least 50%?
### Response yes

### Prompt Does COc1cc2nnc(-c3cc(C)on3)n2nc1OCc1ccc2c(n1)CCN(CCS(C)(=O)=O)C2 [Embodiment 113] have a reported inhibition at 0.1 µM of at least 50%?
### Response no

### Prompt Does COc1cc2nnc(-c3cc(C)on3)n2nc1OCc1ccc2c(n1)N(C)CCO2 [Embodiment 149] have a reported inhibition at 0.1 µM of at least 50%?
### Response yes

### Prompt Does COc1cc2nnc(-c3cc(C)on3)n2nc1OCc1ccc2c(n1)CNCC2 [Embodiment 120] have a reported inhibition at 0.1 µM of at least 50%?
### Response no

====

# key: entry, value: inhibition at 0.1 µM
target: α5-GABAA receptor (Homo sapiens, UniProt P18507+P31644); construct: expressed in transfected cells; host or cells: HEK293, monoclonal stably transfected line; experiment: Cell-level screening: whole cell patch clamp, inverse agonist efficacy on α5-GABAA receptor expressed in HEK293; format: cell-based; conditions: drug 100 nM, GABA 0.05 μM, HEK293 expressing α5, β3 and γ2 subunits, clamped at −60 mV; read-out: Compound inverse agonist efficacy %
Express the result in % but write the number alone.

Examples with answers:
COc1cc2nnc(-c3cc(C)on3)n2nc1OCc1ccc2cnn(C)c2n1 : 51.8
COc1cc2nnc(-c3cc(C)on3)n2nc1OCc1ccc(CN2CCC2)cn1 : 40.7
COc1cc2nnc(-c3cc(C)on3)n2nc1OCc1ccc(C2(F)CN(C)C2)cn1 : 43.9

The record that follows has no inhibition at 0.1 µM shown yet.
### Prompt Let me know recorded inhibition at 0.1 µM for COc1cc2nnc(-c3cc(C)on3)n2nc1OCc1ccc2nn(C3COC3)cc2n1 , thanks.
### Response 45.9

====

target: α5-GABAA receptor (Homo sapiens, UniProt P18507+P31644); construct: expressed in transfected cells; host or cells: HEK293, monoclonal stably transfected line; experiment: Cell-level screening: whole cell patch clamp, inverse agonist efficacy on α5-GABAA receptor expressed in HEK293; assay type: cell-based; details: drug 100 nM, GABA 0.05 μM, HEK293 expressing α5, β3 and γ2 subunits, clamped at −60 mV; read-out: Compound inverse agonist efficacy %
# key: entry, value: inhibition at 0.1 µM
Express the result in % but write the number alone.

COCCCOc1ccnc(COc2nn3c(-c4cc(C)on4)nnc3cc2OC)c1 : 25.1
COCCN1CCc2nc(COc3nn4c(-c5cc(C)on5)nnc4cc3OC)ccc2C1=O : 58.6
COc1cc2nnc(-c3cc(C)on3)n2nc1OCc1ccc(Cl)cn1 : 42.9

### Prompt Let me know recorded inhibition at 0.1 µM for COCCCOc1cc(C)c(COc2nn3c(-c4cc(C)on4)nnc3cc2OC)nn1 , thanks.
### Response 40.5

### Prompt Let me know recorded inhibition at 0.1 µM for COc1cnc(COc2nn3c(-c4cc(C)on4)nnc3cc2OC)cc1OC , thanks.
### Response 45.8

### Prompt Let me know recorded inhibition at 0.1 µM for COc1cc2nnc(-c3cc(C)on3)n2nc1OCc1ccc2c(n1)CCN(CC(F)(F)CO)C2 , thanks.
### Response 50.8

### Prompt Let me know recorded inhibition at 0.1 µM for COc1cc2nnc(-c3cc(C)on3)n2nc1OCc1ccc2ncn(C3CCOC3)c2n1 (centres unmarked) , thanks.
### Response 46.6

### Prompt Let me know recorded inhibition at 0.1 µM for COc1cc2nnc(-c3cc(C)on3)n2nc1OCc1ccc(OCC2CCCO2)cn1 (centres unmarked) , thanks.
### Response 60.4

====

molecular target: α5-GABAA receptor (Homo sapiens, UniProt P18507+P31644); construct: expressed in transfected cells; host or cells: HEK293, monoclonal stably transfected line; assay: Cell-level screening: whole cell patch clamp, inverse agonist efficacy on α5-GABAA receptor expressed in HEK293; assay type: cell-based; conditions: drug 100 nM, GABA 0.05 μM, HEK293 expressing α5, β3 and γ2 subunits, clamped at −60 mV; read-out: Compound inverse agonist efficacy %
# key: entry, value: inhibition at 0.1 µM
Express the result in % but write the number alone.

COc1cc2nnc(-c3cc(C)on3)n2nc1OCc1ccc(C2(F)CN(C3COC3)C2)cn1 [Embodiment 128] : 41.2
COc1cc2nnc(-c3cc(C)on3)n2nc1OCc1ccc2c(n1)CCN(C1COC1)C2=O [Embodiment 141] : 40.6
COc1cc2nnc(-c3cc(C)on3)n2nc1OCc1ccc2nn(C(C)C)cc2n1 [Embodiment 235] : 43.5
COc1cc2nnc(-c3cc(C)on3)n2nc1OCc1ccc(C2CCNC2)cn1 (centres unmarked) [Embodiment 96] : 38.8
COc1cc2nnc(-c3cc(C)on3)n2nc1OCc1ccc(OC(F)(F)F)cn1 [Embodiment 61] : 45.8

### Prompt Let me know recorded inhibition at 0.1 µM for COc1cc2nnc(-c3cc(C)on3)n2nc1OCc1ncnn1C [Embodiment 1] , thanks.
### Response 41.9

### Prompt Let me know recorded inhibition at 0.1 µM for COc1cc2nnc(-c3cc(C)on3)n2nc1OCc1ccc2c(n1)CCN(C(C)=O)C2 [Embodiment 115] , thanks.
### Response 32.9

### Prompt Let me know recorded inhibition at 0.1 µM for CCOc1ccc(COc2nn3c(-c4cc(C)on4)nnc3cc2OC)nc1 [Embodiment 23] , thanks.
### Response 41.2

====

biological target: α5-GABAA receptor (Homo sapiens, UniProt P18507+P31644); construct: expressed in transfected cells; host or cells: HEK293, monoclonal stably transfected line; test: Cell-level screening: whole cell patch clamp, inverse agonist efficacy on α5-GABAA receptor expressed in HEK293; assay type: cell-based; conditions: drug 100 nM, GABA 0.05 μM, HEK293 expressing α5, β3 and γ2 subunits, clamped at −60 mV; read-out: Compound inverse agonist efficacy %
Returns one of fulfilled or not fulfilled; fulfilled when inhibition at 0.1 µM is >= 40%.

Worked cases, answers included:
COc1cc2nnc(-c3cc(C)on3)n2nc1OCc1ccc2c(n1)CCN(CC(=O)N(C)C)C2 : not fulfilled
Cc1cc(-c2nnc3cc(OC(F)F)c(OCc4ccccn4)nn23)no1 : fulfilled
COc1cc2nnc(-c3cc(C)on3)n2nc1OCc1ccc2c(ncn2C2CCOCC2)n1 : not fulfilled

### Prompt Does COc1cc2nnc(-c3cc(C)on3)n2nc1OCc1ccc(OC2COC2)nn1 have a reported inhibition at 0.1 µM of at least 40%?
### Response fulfilled

### Prompt Does COCc1cc(-c2nnc3cc(OC)c(OCc4ccccn4)nn23)no1 have a reported inhibition at 0.1 µM of at least 40%?
### Response not fulfilled

### Prompt Does COCCn1ncc2nc(COc3nn4c(-c5cc(C)on5)nnc4cc3OC)ccc21 have a reported inhibition at 0.1 µM of at least 40%?
### Response fulfilled

### Prompt Does COc1cc2nnc(-c3cc(C)on3)n2nc1OCc1cc2c(cn1)OCCO2 have a reported inhibition at 0.1 µM of at least 40%?
### Response not fulfilled

### Prompt Does COc1ccc(COc2nn3c(-c4cc(C)on4)nnc3cc2OC)nc1 have a reported inhibition at 0.1 µM of at least 40%?
### Response fulfilled

### Prompt Does COc1cc2nnc(-c3cc(C)on3)n2nc1OCc1ccc(=O)n(CCCC#N)n1 have a reported inhibition at 0.1 µM of at least 40%?
### Response not fulfilled

### Prompt Does CCN1CCc2nc(COc3nn4c(-c5cc(C)on5)nnc4cc3OC)ccc2C1=O have a reported inhibition at 0.1 µM of at least 40%?
### Response fulfilled

### Prompt Does COc1cc2nnc(-c3cc(C)on3)n2nc1OCc1ccc(C2CCNCC2)cn1 have a reported inhibition at 0.1 µM of at least 40%?
### Response fulfilled
